molecular target: Human Cot (Homo sapiens (Human)); assay: High Throughput Cot Biochemical Assay; details: IC50 HTRF, Cot HTRF (TR-FRET) biochemical assay
Sequence (P41279 30-397): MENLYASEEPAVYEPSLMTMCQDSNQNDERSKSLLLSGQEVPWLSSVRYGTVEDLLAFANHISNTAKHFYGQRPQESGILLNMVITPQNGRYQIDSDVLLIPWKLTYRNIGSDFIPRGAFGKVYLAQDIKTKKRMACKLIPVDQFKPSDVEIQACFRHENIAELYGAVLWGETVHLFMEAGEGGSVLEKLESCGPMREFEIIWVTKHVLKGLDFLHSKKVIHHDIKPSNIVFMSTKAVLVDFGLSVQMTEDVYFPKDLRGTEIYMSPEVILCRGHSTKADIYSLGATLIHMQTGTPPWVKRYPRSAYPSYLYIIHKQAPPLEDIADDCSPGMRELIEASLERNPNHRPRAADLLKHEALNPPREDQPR
pIC50: −log10 of the molar value.
observationType: pIC50

>  <smilesEntry>
Cc1nc(F)ccc1[C@H](Nc1cc(Cl)c2ncc(C#N)c(NCC(C)(C)CCl)c2c1)c1cn(C2(C(F)(F)F)CC2)nn1

>  <measuredTarget>
Human Cot (Homo sapiens (Human))

>  <numericReadout>
8.52

$$$$
>  <smilesEntry>
COCCOCCn1cc([C@@H](Nc2cc(Cl)c3ncc(C#N)c(Nc4ccc(F)c(Cl)c4)c3c2)c2cccnc2)nn1

>  <measuredTarget>
Human Cot (Homo sapiens (Human))

>  <numericReadout>
8.10

$$$$
>  <smilesEntry>
N#Cc1cnc2c(Cl)cc(N[C@@H](c3cccnc3)c3cn(CCOCCO)nn3)cc2c1Nc1ccc(F)c(Cl)c1

>  <measuredTarget>
Human Cot (Homo sapiens (Human))

>  <numericReadout>
8.22

$$$$
>  <smilesEntry>
Cc1nc(F)ccc1[C@H](Nc1cc(C#N)c2ncc(C#N)c(NCC(C)(C)C)c2c1)c1cn(Cc2c(F)cccc2F)nn1

>  <measuredTarget>
Human Cot (Homo sapiens (Human))

>  <numericReadout>
8.40

$$$$

a = Cc1nc(F)ccc1[C@H](Nc1cc(C#N)c2ncc(C#N)c(NCC(C)(C)C)c2c1)c1cn(C(C)(C)C(F)(F)F)nn1
b = Cc1nc(F)ccc1[C@H](Nc1cc(Cl)c2ncc(C#N)c(NCC(C)(C)C)c2c1)c1cn(C2(C)COC2)nn1
c = CCc1nc(F)ccc1[C@H](Nc1cc(Cl)c2ncc(C#N)c(NCC(C)(C)C)c2c1)c1cn(C2(C(F)(F)F)CC2)nn1
Let's sort these by pIC50, smallest first. Go ahead? Put the labels in the order asked and list them.
c, a, b

* * *

target: Human Cot (Homo sapiens (Human)); assay: High Throughput Cot Biochemical Assay
observationType: IC50 (nM)
Numeric only. Scale: nM

IC50 reading for CCN1CCc2c([C@H](Nc3cc(Cl)c4ncc(C#N)c(Nc5ccc(F)c(Cl)c5)c4c3)c3cn(C4COC4)nn3)csc2C1 : 3

* * *

test system: TNFα; assay: Cot Monocyte TNFα Cell Based Assay; conditions: Homo sapiens, Monocyte, read-out: EC50 TNF, LPS-stimulated human monocytes, TNFα
pEC50: −log10 of the molar value.
observationType: pEC50

>  <smilesEntry>
N#Cc1cnc2c(Cl)cc(N[C@H](c3c[nH]nn3)c3cccc4c3CNC4)cc2c1Nc1ccc(F)c(Cl)c1

>  <numericReadout>
5.60

$$$$

1 = CC(C)(C)CNc1c(C#N)cnc2c(Br)cc(N[C@H](c3cn(C4(C(F)(F)F)CC4)nn3)c3cccc4ncsc34)cc12
2 = Cn1ncc2c([C@H](Nc3cc(C#N)c4ncc(C#N)c(NCC(C)(C)C)c4c3)c3cn(C4(C(F)(F)F)CC4)nn3)cccc21
Please state the entry with greater pEC50 among 1 and 2 . Give the label of your selection.
2
(2: 6.93, 1: 6.52)

* * *

system: TNFα; test: Cot Monocyte TNFα Cell Based Assay; conditions: Homo sapiens, Monocyte, read-out: EC50 TNF, LPS-stimulated human monocytes, TNFα
observationType: EC50 (µM)

The following compounds have reported results that may help.
>  <smilesEntry>
Cc1nc([C@H](Nc2cc(Cl)c3ncc(C#N)c(NCC(C)(C)C)c3c2)c2cn(C3(C(F)F)CC3)nn2)c(C)o1

>  <measuredTarget>
TNFα

>  <observationType>
EC50

>  <readoutUnit>
µM

>  <numericReadout>
0.806

$$$$
>  <smilesEntry>
Cn1cc2cccc([C@H](Nc3cc(Cl)c4ncc(C#N)c(NCC(C)(C)C)c4c3)c3cn(C4(C(F)(F)F)CC4)nn3)c2n1

>  <measuredTarget>
TNFα

>  <observationType>
EC50

>  <readoutUnit>
µM

>  <numericReadout>
1

$$$$
>  <smilesEntry>
CC(C)(C)ONc1c(C#N)cnc2c(C#N)cc(N[C@H](c3cn(C4CC4)nn3)c3cccc4ncsc34)cc12

>  <measuredTarget>
TNFα

>  <observationType>
EC50

>  <readoutUnit>
µM

>  <numericReadout>
1

$$$$
>  <smilesEntry>
Cn1ccc2c([C@H](Nc3cc(Cl)c4ncc(C#N)c(NCC(C)(C)C)c4c3)c3cn(C4(C(F)F)CC4)nn3)ccnc21

>  <measuredTarget>
TNFα

>  <observationType>
EC50

>  <readoutUnit>
µM

>  <numericReadout>
0.209

$$$$
>  <smilesEntry>
CC1(C)COCC[C@@H]1Nc1c(C#N)cnc2c(C#N)cc(N[C@H](c3cn(C4(C(F)(F)F)CC4)nn3)c3cccc4ncsc34)cc12

>  <measuredTarget>
TNFα

>  <observationType>
EC50

>  <readoutUnit>
µM

>  <numericReadout>
0.258

$$$$
>  <smilesEntry>
Cc1ccc([C@H](Nc2cc(Cl)c3ncc(C#N)c(NCC(C)(C)C)c3c2)c2cn(C3(C(F)F)CC3)nn2)c(C)n1

>  <measuredTarget>
TNFα

>  <observationType>
EC50

>  <readoutUnit>
µM

>  <numericReadout>
0.1

$$$$
>  <smilesEntry>
N#Cc1cnc2c(Cl)cc(N[C@H](c3cn(C4COC4)nn3)c3csc(N4CCOCC4)n3)cc2c1Nc1ccc(F)c(Cl)c1

>  <measuredTarget>
TNFα

>  <observationType>
EC50

>  <readoutUnit>
µM

>  <numericReadout>
0.472

$$$$
>  <smilesEntry>
N#Cc1cnc2c(Cl)cc(N[C@@H](c3cscn3)c3cn(C4CCNCC4)nn3)cc2c1Nc1ccc(F)c(Cl)c1

>  <measuredTarget>
TNFα

>  <observationType>
EC50

>  <readoutUnit>
µM

>  <numericReadout>
0.983

$$$$
>  <smilesEntry>
Cc1nc(F)ccc1[C@H](Nc1cc(Cl)c2ncc(C#N)c(NCC(C)(C)C)c2c1)c1cn(C2(CO)COC2)nn1

>  <measuredTarget>
TNFα

>  <observationType>
EC50

>  <readoutUnit>
µM

>  <numericReadout>
0.114

$$$$

P = Cn1cc([C@@H](Nc2cc(Cl)c3ncc(C#N)c(NCC(C)(C)C)c3c2)c2cccc3c(=O)n(C)ccc23)nn1
Q = Cc1nc(F)ccc1[C@H](Nc1cc(F)c2ncc(C#N)c(NCC(C)(C)C)c2c1)c1cn(C2(C(N)=O)CCC2)nn1
R = CC(C)(C)N1CCC(n2cc([C@@H](Nc3cc(Cl)c4ncc(C#N)c(Nc5ccc(F)c(Cl)c5)c4c3)c3csc4ccccc34)nn2)CC1
S = Cn1ccc2c([C@H](Nc3cc(Cl)c4ncc(C#N)c(NCC(C)(C)C)c4c3)c3cn(C4(C5CC5)CC4)nn3)cccc2c1=O
Reorder: EC50, max to min. Put the labels in the order asked and list them.
R, Q, P, S
(R: 0.744 µM, Q: 0.245 µM, P: 0.082 µM, S: 0.026 µM)
